Molecular target: T1, RAVV GP on rVSV pseudotype (VSV-MARV RAVV GP) (Ravn virus, UniProt Q1PDC7 19-681)
T1 sequence: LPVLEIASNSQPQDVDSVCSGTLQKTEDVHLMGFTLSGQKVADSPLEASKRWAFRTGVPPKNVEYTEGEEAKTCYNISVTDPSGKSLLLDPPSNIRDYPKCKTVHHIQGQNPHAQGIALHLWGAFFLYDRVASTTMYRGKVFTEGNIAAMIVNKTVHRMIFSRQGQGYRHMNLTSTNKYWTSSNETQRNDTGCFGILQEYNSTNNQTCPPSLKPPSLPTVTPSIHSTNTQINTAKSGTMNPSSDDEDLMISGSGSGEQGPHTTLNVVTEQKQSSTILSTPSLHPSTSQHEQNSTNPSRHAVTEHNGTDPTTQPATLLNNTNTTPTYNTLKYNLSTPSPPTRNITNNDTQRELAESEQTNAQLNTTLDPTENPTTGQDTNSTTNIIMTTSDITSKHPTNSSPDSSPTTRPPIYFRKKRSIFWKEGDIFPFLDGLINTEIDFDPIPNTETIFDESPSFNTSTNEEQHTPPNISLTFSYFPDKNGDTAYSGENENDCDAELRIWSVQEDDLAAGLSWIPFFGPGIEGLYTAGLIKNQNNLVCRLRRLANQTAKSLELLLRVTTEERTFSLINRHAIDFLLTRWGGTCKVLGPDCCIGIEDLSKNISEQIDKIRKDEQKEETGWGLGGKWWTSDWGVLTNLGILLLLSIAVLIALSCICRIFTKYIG
Experiment: cell-based or functional assay
# NT50 per entry
endpoint-label: NT50 (µg/mL)

binder="R24 (antibody, V domains shown) VH: EVQLVESGAGLVQPGGSLRLSCAGSGFTFSNTWMTWVRQAPGKGLEWVARIKRKADGETADYAASVKGRFTISRDDSKSTLYLQMNSLKTEDTAVYYCTTYNWNFNFDYWGQGVLVTVSS VL: DIQMTQSPSSLSASVGDRVTITCRASQDISPYLNWYQQKPGKAPKLLIYYGNRLESGVPSRFSGSGSGTDLTLTISSLQPEDFATYYCQQYYRLPLTFGGGTKVESK" endpoint_label=NT50 units_symbol=µg/mL reported_measurement=0.06
binder="R64 (antibody, V domains shown) VH: QVQLQESGPGLVKPSETLSLTCAVSGASMSDYWWNWIRQPPGKGLEWIGEIYGYSGSSYYNPSLKSRVSISKDASKKQLSLKLSSVTAADTAVYYCARDPLNQDAFDFWGLGLRVTVSS VL: QSALTQPPSVSGSPGLSVTISCTGSGSDIGGYDYVSWYQQHPGKAPKLMIYGVNKRPSGVSDRFSGSKSGNTASLSISGLQAEDEADYYCSSYAGSHTLLFGGGSRLTVL" endpoint_label=NT50 units_symbol=µg/mL reported_measurement=0.09
binder="R50 (antibody, V domains shown) VH: QVQLQESGPGLVKPSETLSLTCAVSGDSISSYWWNWIRQPPGKGLEWIGEIYGYSGSTNYNASLKSRVTISKDASKKQLSLKLSSVTAADTAVYYCARDPLNQDAFDFWGLGLRVTVSS VL: QSALTQPPSVSGSPGQSVTISCTGTSSDIGGYTYVSWYQQHPGKAPKLMIYDVSRRPSGVSDRFSGSKSGNTASLTISGLQAEDEADYYCSSYAGRNALLFGGGTRLTVL" endpoint_label=NT50 units_symbol=µg/mL reported_measurement=0.21
binder="R55 (antibody, V domains shown) VH: QVQLQESGPGLVKPSETLSLTCAVSGDSISSYWWNWIRQPPGKGLEWIGEIYGYSGSTNYNPSLKSRVTISKDASKKQLSLKLSSVTAADTAVYYCARDPLNQDAFDFWGLGLRVTVSS VL: QSALTQPPSVSGSPGQSVTISCTGTSSDIGGYTYVSWYQQHPGKAPKLMIYDVSRRPSGVSDRFSGSKSGNTASLTISGLQAEDEADYYCSSYAGRNALLFGGGTRLTVL" endpoint_label=NT50 units_symbol=µg/mL reported_measurement=0.24
